Entry source: ChEMBL document CHEMBL4334466

# assay protocol: Kinetic solubility in pH 7.4 NaH2PO4 buffer at 200 uM incubated for 24 hrs by HPLC-UV analysis
# Type: physicochemical
# measurement parameters: read-out: Kinetic_solubility
I'd appreciate it if you could supply solubility kinetic at 24 h, 200 µM values for the items below.
Give bare numbers, in µM.

CCOC(=O)[C@H](CC(C)C)NP(=O)(OC[C@H]1OC(OC(C)=O)[C@@H](NC(C)=O)[C@@H](OC(C)=O)[C@@H]1OC(C)=O)Oc1ccccc1 (mixture of isomers)
125

Report solubility kinetic at 24 h, 200 µM for each item below.
1. CCOC(=O)[C@H](Cc1ccccc1)NP(=O)(OC[C@H]1OC(OC(C)=O)[C@@H](NC(C)=O)[C@@H](OC(C)=O)[C@@H]1OC(C)=O)Oc1ccccc1 (mixture of isomers)
2. COC(=O)CNP(=O)(OC[C@H]1OC(OC(C)=O)[C@@H](NC(C)=O)[C@@H](OC(C)=O)[C@@H]1OC(C)=O)Oc1cccc2ccccc12 (mixture of isomers)

Result:
124
129

Request: What solubility kinetic at 24 h, 200 µM value was documented for this molecule, COC(=O)[C@@H]1CCCN1P(=O)(OC[C@H]1OC(OC(C)=O)[C@@H](NC(C)=O)[C@@H](OC(C)=O)[C@@H]1OC(C)=O)Oc1ccccc1 (mixture of isomers) ?
Result: 152

* * *

# target or test system: Carboxypeptidase Y (Saccharomyces cerevisiae (strain ATCC 204508 / S288c) (Baker's yeast))
# assay protocol: Drug metabolism assessed as Baker's yeast carboxypeptidase Y-mediated activation of pro-moiety by measuring parent phosphoramidates level at 5 mg in 0.05 M Trizma buffer at pH 7.6 in deuterated acetone measured after 15 mins by LC-MS analysis
# Assay type: ADME
# measurement parameters: Baker's yeast carboxypeptidase Y (isolated enzyme), read-out: Stability
I'd appreciate it if you could supply remaining at 0.25 h values for the items below.

CC(=O)N[C@@H]1C(OC(C)=O)O[C@H](COP(=O)(N[C@@H](C)C(=O)OC(C)C)Oc2ccccc2)[C@@H](OC(C)=O)[C@@H]1OC(C)=O (stereo not given in full)
< 50%
CCOC(=O)[C@@H](NP(=O)(OC[C@H]1OC(OC(C)=O)[C@@H](NC(C)=O)[C@@H](OC(C)=O)[C@@H]1OC(C)=O)Oc1ccccc1)[C@@H](C)CC (stereo not given in full)
< 50%
CC(=O)N[C@@H]1C(OC(C)=O)O[C@H](COP(=O)(NC(C)(C)C(=O)OCc2ccccc2)Oc2ccccc2)[C@@H](OC(C)=O)[C@@H]1OC(C)=O (stereo not given in full)
< 50%
CC(=O)N[C@@H]1C(OC(C)=O)O[C@H](COP(=O)(N[C@@H](C)C(=O)OCc2ccccc2)Oc2cccc3ccccc23)[C@@H](OC(C)=O)[C@@H]1OC(C)=O (stereo not given in full)
< 50%

Shift focus to the following entry.
Request: What remaining at 0.25 h value was documented for this molecule, CC(=O)N[C@@H]1C(OC(C)=O)O[C@H](COP(=O)(N[C@H](C(=O)OCc2ccccc2)C(C)C)Oc2ccccc2)[C@@H](OC(C)=O)[C@@H]1OC(C)=O (stereo not given in full) ?
Result: < 50%

* * *

# target or test system: Carboxypeptidase Y (Saccharomyces cerevisiae (strain ATCC 204508 / S288c) (Baker's yeast), UniProt P00729)
# Sequence (P00729 whole entry): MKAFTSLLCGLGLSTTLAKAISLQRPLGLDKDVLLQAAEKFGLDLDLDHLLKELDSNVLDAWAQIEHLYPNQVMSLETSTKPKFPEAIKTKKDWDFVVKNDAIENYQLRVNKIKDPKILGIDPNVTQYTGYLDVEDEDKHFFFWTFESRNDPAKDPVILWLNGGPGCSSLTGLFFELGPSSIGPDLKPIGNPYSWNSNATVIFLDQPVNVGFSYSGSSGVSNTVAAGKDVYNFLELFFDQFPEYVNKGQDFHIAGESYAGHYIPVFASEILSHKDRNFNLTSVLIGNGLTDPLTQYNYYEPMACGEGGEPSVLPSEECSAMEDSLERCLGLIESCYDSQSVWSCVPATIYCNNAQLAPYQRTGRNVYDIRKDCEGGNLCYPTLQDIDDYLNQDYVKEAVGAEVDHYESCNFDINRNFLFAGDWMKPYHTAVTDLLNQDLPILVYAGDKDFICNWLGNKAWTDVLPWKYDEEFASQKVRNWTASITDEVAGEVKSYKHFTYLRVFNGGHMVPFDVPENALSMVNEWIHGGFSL
# assay protocol: Drug metabolism assessed as Baker's yeast carboxypeptidase Y-mediated activation of pro-moiety by measuring parent phosphoramidates level at 5 mg in 0.05 M Trizma buffer at pH 7.6 in deuterated acetone measured after 15 mins by LC-MS analysis
# Assay type: ADME
# measurement parameters: Baker's yeast carboxypeptidase Y (isolated enzyme), read-out: Stability
measure: remaining at 0.25 h

Take a look at these entries with their results.
COC(=O)CNP(=O)(OC[C@H]1OC(OC(C)=O)[C@@H](NC(C)=O)[C@@H](OC(C)=O)[C@@H]1OC(C)=O)Oc1cccc2ccccc12 (mixture of isomers)
< 50%
CCOC(=O)[C@H](Cc1ccccc1)NP(=O)(OC[C@H]1OC(OC(C)=O)[C@@H](NC(C)=O)[C@@H](OC(C)=O)[C@@H]1OC(C)=O)Oc1ccccc1 (mixture of isomers)
< 50%

Shift focus to the following entry.
Request: What remaining at 0.25 h value was documented for this molecule, CCOC(=O)[C@H](CC(C)C)NP(=O)(OC[C@H]1OC(OC(C)=O)[C@@H](NC(C)=O)[C@@H](OC(C)=O)[C@@H]1OC(C)=O)Oc1ccccc1 (mixture of isomers) ?
Result: < 50%
